Hey, just so you know, these numbers are from patent US9260400B2.

- ASSAY_NOTES: In vitro metabolic stability using liver S9 fractions
- Assay type: in vitro ADME
- ASSAY_CONDITIONS: 10 μM compound, 1 mg/ml rat liver S9, 30 min at 37° C.
RECORDED_ENDPOINT: % parent compound after incubation with rat liver S9 fractions (%)
Number only, in %; omit the unit.

// query Identify measured % parent compound after incubation with rat liver S9 fractions associated with COc1ccc(OCC(O)CN2CCN(c3ccccc3-c3ccccc3)CC2)cc1 (stereo not shown)
// result 35

// query Identify measured % parent compound after incubation with rat liver S9 fractions associated with COc1ccc(CNC(=O)CCCCCN2CCN(c3ncccc3-c3ccccn3)CC2)cc1
// result 80

// query Identify measured % parent compound after incubation with rat liver S9 fractions associated with COc1ccc(OCC(O)CN2CCN(c3ncccc3-c3ccncc3)CC2)cc1 (stereo not shown)
// result 82

// query Identify measured % parent compound after incubation with rat liver S9 fractions associated with COc1cccc(C(F)CN2CCN(c3ncccc3-c3ccccn3)CC2)c1 (stereo not shown)
// result 84

// query Identify measured % parent compound after incubation with rat liver S9 fractions associated with FCCOc1ccc(OCCN2CCN(c3ncccc3-c3ccccn3)CC2)cc1
// result 68

// query Identify measured % parent compound after incubation with rat liver S9 fractions associated with COc1cccc(OCCN2CCN(c3ncccc3-c3ccccn3)CC2)c1
// result 78

// query Identify measured % parent compound after incubation with rat liver S9 fractions associated with COc1ccc(-c2ccccc2N2CCN(CCCCCC(=O)NCc3ccccn3)CC2)cc1
// result 55
